# Test system: MCF7
# TEST METHOD NOTES: Cytotoxicity against human MCF7 cells assessed as decrease in cell viability after 72 hrs by OZBlue assay
# TEST CONTEXT: MCF7, 72 h
OBSERVATION TYPE: pIC50
Hey, just a heads up that pIC50 is the negative log base 10 of the concentration in molar.

Write down measured pIC50 (MCF7) for this compound. O=C1C=C(Sc2ccccc2)c2c(c(-c3ccccc3)cn2S(=O)(=O)c2ccccc2)C1=O
4.54

Write down measured pIC50 (MCF7) for this compound. Cc1ccccc1-c1cn(S(=O)(=O)c2ccccc2)c2c1C(=O)C(=O)C=C2
4.23

Write down measured pIC50 (MCF7) for this compound. Cc1cccc2c3c(ccc12)C1=C(C(=O)C3=O)[C@@H](C)CO1 [DIHYDROTANSHINONE I]
5.43

Write down measured pIC50 (MCF7) for this compound. O=C1C=Cc2c(c(-c3ccccc3)cn2S(=O)(=O)c2ccccc2)C1=O
4.49

Write down measured pIC50 (MCF7) for this compound. COc1ccc(SC2=CC(=O)C(=O)c3c(-c4ccccc4)cn(S(=O)(=O)c4ccccc4)c32)cc1
4.63
